Hello, the source for this data is BigSolDB 2.1, in case you need it.

Settings: in dichloromethane, 298.15 K
VALUE_TYPE: solubility (mole fraction)

Look up solubility (mole fraction) for this compound: CC(C)Oc1ccc2c(=O)c(-c3ccccc3)coc2c1
0.0988

====

Settings: in methyl acetate, 288.15 K
VALUE_TYPE: solubility (mole fraction)
Keep the answer to the number alone.

Returns the measured solubility (mole fraction) for the input compound. Input: CC(C)Oc1ccc2c(=O)c(-c3ccccc3)coc2c1
0.0142

====

Details: in methyl acetate, 308.15 K
VALUE_TYPE: solubility (mole fraction)
Output spec: single numeric token, no unit.

Using the record for CC(C)Oc1ccc2c(=O)c(-c3ccccc3)coc2c1 , report its solubility (mole fraction).
0.0321

====

Details: in DMF, 293.15 K
VALUE_TYPE: solubility (mole fraction)
Just the number.

What measured solubility (mole fraction) goes with CC(C)Oc1ccc2c(=O)c(-c3ccccc3)coc2c1 ?
0.0431

====

Settings: in acetone, 288.15 K
VALUE_TYPE: solubility (mole fraction)

// returns reported solubility (mole fraction) for input CC(C)Oc1ccc2c(=O)c(-c3ccccc3)coc2c1
0.0128

====

Conditions: in n-butanol, 278.15 K
VALUE_TYPE: solubility (mole fraction)
Reply with the value as a number alone.

Fill in: solubility (mole fraction) of CC(C)Oc1ccc2c(=O)c(-c3ccccc3)coc2c1 is ___
0.00166

====

Conditions: in n-propanol, 303.15 K
VALUE_TYPE: solubility (mole fraction)
The answer should be written as a number, with no unit following it.

Would you kindly share the measured solubility (mole fraction) for CC(C)Oc1ccc2c(=O)c(-c3ccccc3)coc2c1 ?
0.00509

====

Settings: in n-propanol, 288.15 K
VALUE_TYPE: solubility (mole fraction)
Could you keep your reply to the number by itself?

Sample CC(C)Oc1ccc2c(=O)c(-c3ccccc3)coc2c1 — what was its solubility (mole fraction)?
0.00223

====

Details: in acetone, 323.15 K
VALUE_TYPE: solubility (mole fraction)
Returns: the value as a bare number; no unit string appended.

# lookup: solubility (mole fraction) of CC(C)Oc1ccc2c(=O)c(-c3ccccc3)coc2c1
0.056

====

Details: in toluene, 288.15 K
VALUE_TYPE: solubility (mole fraction)

Dear colleague, I am looking for the recorded solubility (mole fraction) of the following compound: CC(C)Oc1ccc2c(=O)c(-c3ccccc3)coc2c1
0.0174

====

Details: in methanol, 278.15 K
VALUE_TYPE: solubility (mole fraction)
Keep the answer to the number alone.

Item under review: CC(C)Oc1ccc2c(=O)c(-c3ccccc3)coc2c1 . Reported solubility (mole fraction)?
0.000841

====

Details: in DMAc, 323.15 K
VALUE_TYPE: solubility (mole fraction)
Lab note: jot down the number only; don't add units.

Find the recorded solubility (mole fraction) belonging to CC(C)Oc1ccc2c(=O)c(-c3ccccc3)coc2c1 and report it.
0.152

====

Details: in n-pentanol, 288.15 K
VALUE_TYPE: solubility (mole fraction)
Give your answer as a number; write no unit.

Recorded solubility (mole fraction) of CC(C)Oc1ccc2c(=O)c(-c3ccccc3)coc2c1 , please.
0.00338

====

Settings: in toluene, 313.15 K
VALUE_TYPE: solubility (mole fraction)
I only need the number, thanks.

// solubility (mole fraction) lookup, key: CC(C)Oc1ccc2c(=O)c(-c3ccccc3)coc2c1
0.0523

====

Details: in ethanol, 303.15 K
VALUE_TYPE: solubility (mole fraction)
Give the figure by itself; no unit, no explanation.

Which measured solubility (mole fraction) value corresponds to CC(C)Oc1ccc2c(=O)c(-c3ccccc3)coc2c1 ?
0.00409
